I'd appreciate it if you could supply Cmax values for the items below.
- ASSAY PROCEDURE: Cmax in Wistar rat at 5 mg/kg, po via gavage by LC-Ms/MS analysis
- Assay type: ADME, organism-based
- Parameters: dose 5 mg/kg, route oral
- STATED CONDITIONS: in vivo
Record the result as a number with its unit.

{"columns": ["SMILES TEXT", "ENDPOINT RESULT"],
 "data": [
  ["CCCn1c(Oc2ccc(F)c(F)c2)nc2nc(C3CCCC3)[nH]c2c1=O", "9.71 µM"]
]}

Let us examine a further case.
[in] Give the reported Cmax for this compound. CCCn1c(-c2cccc(OC)c2)nc2nc(C3CCCC3)[nH]c2c1=O
[out] 1.74 µM

* * *

- TGT: Adenosine receptor A2b (Homo sapiens)
- Sequence (P29275 whole entry): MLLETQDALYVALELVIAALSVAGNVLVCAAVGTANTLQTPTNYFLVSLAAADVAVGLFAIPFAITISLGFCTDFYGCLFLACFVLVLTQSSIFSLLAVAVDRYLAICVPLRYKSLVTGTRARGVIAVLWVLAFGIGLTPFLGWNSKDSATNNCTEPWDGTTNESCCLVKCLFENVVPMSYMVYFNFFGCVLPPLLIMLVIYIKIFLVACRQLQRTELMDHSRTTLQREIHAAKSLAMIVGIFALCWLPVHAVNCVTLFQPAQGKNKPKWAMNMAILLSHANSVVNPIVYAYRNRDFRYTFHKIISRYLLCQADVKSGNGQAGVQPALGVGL
- ASSAY PROCEDURE: Antagonist activity at human adenosine A2B receptor expressed in HEK293 cells assessed as reduction in NECA-induced increase in cAMP level preincubated for 15 mins followed by NECA addition measured after 15 mins by HTRF assay
- Assay type: functional, cell-based
TEST READOUT: Ki

Please review the entries below; each comes with its answer.
{"columns": ["SMILES TEXT", "TGT", "Ki"],
 "data": [
  ["CCCn1c(-c2cccc(OC)c2)nc2nc(C3CCCC3)[nH]c2c1=O", "Adenosine receptor A2b (Homo sapiens)", "650 to 690 nM"],
  ["CCCn1c(Oc2ccc(F)c(F)c2)nc2nc(C3CCCC3)[nH]c2c1=O", "Adenosine receptor A2b (Homo sapiens)", "> 10000 nM"]
]}

// moving on: another record for Ki
[in] Find Ki for CCCn1c(Oc2cccnc2C)nc2nc(C3CCCC3)[nH]c2c1=O on Adenosine receptor A2b (Homo sapiens) and write it down.
[out] 560 nM

* * *

Record form. Attribute: inhibition. Fill in for each entry.
- TGT: Adenosine receptor A1 (Homo sapiens) (UniProt P30542)
- Sequence (whole entry): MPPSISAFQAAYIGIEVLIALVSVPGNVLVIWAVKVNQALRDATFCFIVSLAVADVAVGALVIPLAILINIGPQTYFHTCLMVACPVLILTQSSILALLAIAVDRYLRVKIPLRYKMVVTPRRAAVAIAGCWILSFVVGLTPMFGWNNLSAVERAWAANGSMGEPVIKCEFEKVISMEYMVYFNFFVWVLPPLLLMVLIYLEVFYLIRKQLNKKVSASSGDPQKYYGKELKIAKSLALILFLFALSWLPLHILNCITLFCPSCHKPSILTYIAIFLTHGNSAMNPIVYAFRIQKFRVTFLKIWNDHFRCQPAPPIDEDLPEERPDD
- ASSAY PROCEDURE: Displacement of [3H]DPCPX from human adenosine A1 receptor expressed in HEK293 cell membranes at 1 uM after 90 mins relative to control

Reference set (2 entries):
{"columns": ["SMILES TEXT", "inhibition"],
 "data": [
  ["CCCn1c(NCCO)nc2nc(C3CCCC3)[nH]c2c1=O", "36%"],
  ["CCCn1c(-c2cccc(C(F)(F)F)c2)nc2nc(C3CCCC3)[nH]c2c1=O", "100%"]
]}

Provide inhibition values for the following items, in order.
1. CCCn1c(NCc2ccc(C(=O)O)cc2)nc2nc(C3CCCC3)[nH]c2c1=O
2. CCCn1c(-c2ccc(C(F)(F)F)cc2)nc2nc(C3CCCC3)[nH]c2c1=O
3. CCCn1c(NCC(=O)O)nc2nc(C3CCCC3)[nH]c2c1=O

[out]
["54%", "70%", "72%"]
